# Target: proPLA2 (Sus scrofa, UniProt P00592)
# Sequence (P00592 16-146 limits assumed): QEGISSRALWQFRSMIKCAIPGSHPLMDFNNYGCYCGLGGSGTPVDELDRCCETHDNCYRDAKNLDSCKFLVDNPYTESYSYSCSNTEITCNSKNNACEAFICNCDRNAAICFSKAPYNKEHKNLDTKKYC
Assay Endpoint: Kd
# do not omit the unit; it follows the number

get_value(item= C[C@H](CCC(=O)NCCS(=O)(=O)O)[C@H]1CC[C@H]2[C@@H]3[C@H](O)C[C@@H]4C[C@H](O)CC[C@]4(C)[C@H]3CC[C@]12C [TCDOC, taurochenodeoxycholate] , readout=Kd) returns 27 µM

----------
# Target: PLA2 K10W/W3F (Sus scrofa, UniProt P00592, K32W/W25F)
# Sequence (P00592 23-146 W25F/K32W): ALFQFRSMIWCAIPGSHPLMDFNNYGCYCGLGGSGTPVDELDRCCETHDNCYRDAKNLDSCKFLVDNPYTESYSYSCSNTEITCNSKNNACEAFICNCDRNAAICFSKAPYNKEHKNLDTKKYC
# Assay Protocol: Bile salt binding by Trp emission, K10W/W3F PLA2
# Measurement Conditions: read-out: KEB
What pKd was measured for each of the following?
Answers are plain numbers, as −log10 of the molar value.

Compound	Result Value
C[C@H](CCC(=O)NCCS(=O)(=O)O)[C@H]1CC[C@H]2[C@@H]3CC[C@@H]4C[C@H](O)CC[C@]4(C)[C@H]3C[C@H](O)[C@]12C [TDOC, taurodeoxycholate]	5.00

Now for a further compound.
get_value(item= C[C@H](CCC(=O)NCCS(=O)(=O)O)[C@H]1CC[C@H]2[C@@H]3[C@H](O)C[C@@H]4C[C@H](O)CC[C@]4(C)[C@H]3CC[C@]12C [TCDOC, taurochenodeoxycholate] , readout=pKd) returns 5.40

----------
# Target: PLA2 (3W)(WT) (Sus scrofa, UniProt P00592)
# Construct: made in house
# Sequence (P00592 23-146): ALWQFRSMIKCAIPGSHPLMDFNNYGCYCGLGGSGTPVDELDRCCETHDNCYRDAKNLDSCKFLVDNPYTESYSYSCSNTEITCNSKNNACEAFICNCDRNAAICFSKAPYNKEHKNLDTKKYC
# Assay Protocol: Bile salt binding by Trp emission, (3W)(WT) PLA2
# Parameters: species or system pig
# Measurement Conditions: read-out: KEB
What pKd was measured for each of the following?
Answers are plain numbers, as −log10 of the molar value.

Compound	Result Value
C[C@H](CCC(=O)NCCS(=O)(=O)O)[C@H]1CC[C@H]2[C@@H]3[C@H](O)C[C@@H]4C[C@H](O)CC[C@]4(C)[C@H]3CC[C@]12C [TCDOC, taurochenodeoxycholate]	5.22

get_value(item= C[C@H](CCC(=O)NCCS(=O)(=O)O)[C@H]1CC[C@H]2[C@@H]3CC[C@@H]4C[C@H](O)CC[C@]4(C)[C@H]3C[C@H](O)[C@]12C [TDOC, taurodeoxycholate] , readout=pKd) returns 4.52

----------
# Target: PLA2 K56W/W3F (Sus scrofa, UniProt P00592, K78W/W25F)
# Assay Protocol: Bile salt binding by Trp emission, K56W/W3F PLA2
# Measurement Conditions: read-out: KEB
# Method: Fluorescence emission spectrum or time course of the intensity change from tryptophan or the resonance energy transfer probe TMA-DPH were measured in the ratio mode on SLM-Aminco AB2 in a 1 cm cuvette [31, 32] in 1.6 ml stirred buffer containing 1 or 2 μM PLA2 in 10 mM Tris, 5 mM CaCl2 and 20 mM NaCl at pH 8.0 and 24° C. The slit-widths were 4 nm with excitation at 280. […]
What pKd was measured for each of the following?
Answers are plain numbers, as −log10 of the molar value.

Molecule	Target	pKd
C[C@H](CCC(=O)NCCS(=O)(=O)O)[C@H]1CC[C@H]2[C@@H]3CC[C@@H]4C[C@H](O)CC[C@]4(C)[C@H]3C[C@H](O)[C@]12C [TDOC, taurodeoxycholate]	PLA2 K56W/W3F (Sus scrofa, UniProt P00592, K78W/W25F)	4.46

Now for a further molecule.
get_value(item= C[C@H](CCC(=O)NCCS(=O)(=O)O)[C@H]1CC[C@H]2[C@@H]3[C@H](O)C[C@@H]4C[C@H](O)CC[C@]4(C)[C@H]3CC[C@]12C [TCDOC, taurochenodeoxycholate] , readout=pKd) returns 4.68

----------
# Target: PLA2 M20W/W3F (Sus scrofa, UniProt P00592, M42W/W25F)
# Assay Protocol: Bile salt binding by Trp emission, M20W/W3F PLA2
# Measurement Conditions: read-out: KEB
Assay Endpoint: Kd
# do not omit the unit; it follows the number

Molecule	Result Value
C[C@H](CCC(=O)NCCS(=O)(=O)O)[C@H]1CC[C@H]2[C@@H]3[C@H](O)C[C@@H]4C[C@H](O)CC[C@]4(C)[C@H]3CC[C@]12C [TCDOC, taurochenodeoxycholate]	75 µM

Now for a further molecule.
get_value(item= C[C@H](CCC(=O)NCCS(=O)(=O)O)[C@H]1CC[C@H]2[C@@H]3CC[C@@H]4C[C@H](O)CC[C@]4(C)[C@H]3C[C@H](O)[C@]12C [TDOC, taurodeoxycholate] , readout=Kd) returns 2 µM

----------
# Target: pig pancreatic IB PLA2 (Sus scrofa, UniProt P00592)
# Construct: made in house
# Sequence (P00592 23-146): as the sequence (P00592 23-146 W25F/K32W) above, with F3W, W10K counted along it
# Assay Protocol: Rate-lowering of hydrolysis of DMPC + 0.05 mole fraction cholate vesicles by pig pancreatic PLA2
# Format: biochemical
# Measurement Conditions: 0.03 mole fraction; DMPC + 0.05 mole fraction cholate
# From the text: Independent support for selective binding of the rate lowering compounds to a regulatory site on PLA2 comes from the rate-lowering effect of such compounds on the hydrolysis of DMPC vesicles containing 0.05 mole fraction cholate. Scores of other compounds in guggul were not active.
What Relative Rate-lowering (%) Activity, pPLA2 was measured for each of the following?

Compound	Result Value
CC=C1C(O)C[C@H]2[C@@H]3CCC4=CC(=O)CC[C@]4(C)[C@H]3CC[C@]12C (some centres unmarked)	90%
CC(=CCCC(C)C1CCC2(C)C3=CCC4C(C)(C)C(O)CCC4(C)C3CCC12C)C(=O)O (centres unmarked)	>95%
C/C=C1\C(=O)C[C@H]2[C@@H]3CCC4=CC(=O)CC[C@]4(C)[C@H]3CC[C@]12C	85%
O=C1[C@H](CC[C@H](O)c2ccc(F)cc2)[C@@H](c2ccc(O)cc2)N1c1ccc(F)cc1	30%

get_value(item= C[C@H](CCC(=O)NCCS(=O)(=O)O)[C@H]1CC[C@H]2[C@@H]3[C@H](O)C[C@@H]4C[C@H](O)CC[C@]4(C)[C@H]3CC[C@]12C [TCDOC, taurochenodeoxycholate] , readout=Relative Rate-lowering (%) Activity, pPLA2) returns 26%
